Values from PubChem BioAssay AID2275

Listed below: viability loss activity score values for each entry.
Assay: BJeLR cell viability loss, primary screen, luminescence, CellTiterGlo ATP (AID 2275);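 further: higher score means fewer live cells and less ATP luminescence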
Details: BJeLR fibroblasts viability, 48 h, hits give high values, HRASV12, hTERT and SV40 LT/ST transformed, concentration not given here
The whole screen tested about 30,000 compounds, of which about 190 (0.63%) were called active. For the sample, actives were picked, then their nearest neighbours and some compounds at random.

Compound	viability loss activity score [%]
CC(C)c1ccc(NC(=O)c2ccc(NS(=O)(=O)c3cccs3)cc2)cc1	11.3
COC(Cn1c(SCC(=O)c2cccc(C(F)(F)F)c2)nnc1-c1ccc(Cl)cc1)OC	2.18
CC1=C(C(=O)OC2CC(C)CCC2C(C)C)C(c2ccc(Br)cc2)n2nnnc2N1 (centres undefined)	-1.4
C[C@@H]1CN([C@@H](C)CO)C(=O)c2cccc(NC(=O)Nc3ccc(C(F)(F)F)cc3)c2O[C@@H]1CN(C)S(=O)(=O)c1ccc(F)cc1	-0.826
CCN(/C=C1\SC(=S)N(c2ccc(OC)cc2)C1=O)CC	-2.34
COC(=O)C1=C(C)NC2=C(C(=O)c3ccccc32)C1c1ccc(OC)cc1 (centres undefined)	-2.35
O=C(CCSc1nc(-c2ccco2)cc(C(F)(F)F)n1)N1CCCCC1	-3.03
CC(C)(C)C(=O)CSc1nc2ccccc2c(=O)n1CC1CC1	-4.35
COc1ccc(/C=C2\SC(=O)N(c3ccc(C)cc3)C2=O)cc1	-2.92

----------
Assay: BJeLR cell viability loss, primary screen, luminescence, CellTiterGlo ATP (AID 2275);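 further: higher score means fewer live cells and less ATP luminescence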
Settings: BJeLR fibroblasts viability, 48 h, hits give high values, HRASV12, hTERT and SV40 LT/ST transformed, concentration not given here
In all, about 30,000 compounds went through this assay and about 190 (0.63%) were called active. Many of the other results were omitted from the sample, so actives are more common in it than they were.
Attribute: viability loss activity score

Compound	viability loss activity score
CC1OC(OC2C(OC3C(O[C@H]4CC[C@@]5(C)C(CC[C@]6(C)C5CC=C5[C@@H]7CC(C)(C)C[C@@H](O)[C@]7(C)CC[C@]56C)C4(C)C)OC(C(=O)O)C(O)C3O)OC(CO)C(O)C2O)C(O)C(O)C1O (stereo partly drawn)	2.12% (inactive)
Cc1ccc(CN2CCSc3ccc(C(=O)Nc4ccc(F)cc4)cc32)cc1	0.172% (inactive)
CCCC(=O)N1CCC(c2c[nH]c3ccccc23)(c2c[nH]c3ccccc23)CC1	5.31% (inactive)

----------
Recorded viability loss activity score, one value per entry.
Assay: BJeLR cell viability loss, primary screen, luminescence, CellTiterGlo ATP (AID 2275);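 further: higher score means fewer live cells and less ATP luminescence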
Details: BJeLR fibroblasts viability, 48 h, hits give high values, HRASV12, hTERT and SV40 LT/ST transformed, concentration not given here
Screen size: about 30,000 compounds; about 190 (0.63%) were called active. This excerpt belongs to a sample that is enriched for actives.

Molecule	viability loss activity score [%]
O=C(NC1CCCCC1)C1CCC(CNS(=O)(=O)c2ccccc2)CC1 (configuration not stated)	6.1
COc1ccc(S(=O)(=O)NCCN2CCOCC2)cc1-c1nnc2c3ccccc3c(C)nn12	13.3
CCc1ccc(NC(=O)NC(C)(C)C)cc1	-4.47
Cc1ccc(S(=O)(=O)Nc2ccc3c(c2)C(=O)N([C@H](C)CO)C[C@H](C)[C@H](CN(C)S(C)(=O)=O)O3)cc1	0.992
Cc1ccc2oc(=O)c3cc(C(=O)NC4CCCC4)sc3c2c1	4.55
COc1ccc(NC(=S)N2CCCC(c3ccccc3)=N2)cc1	-2.21
CC(C)NC(=O)Nc1ccc2c(c1)C(=O)N([C@@H](C)CO)C[C@H](C)[C@H](CN(C)S(=O)(=O)c1cccs1)O2	-2.18
C[C@@H]1CN([C@H](C)CO)C(=O)c2cccc(NS(=O)(=O)c3ccc(F)cc3)c2O[C@@H]1CN(C)C(=O)Nc1ccc(F)cc1	3.97
Cc1cc(C)c2c(c1)CC(C)(C)c1[nH]c(-c3ccccc3)nc1-2	-0.635
CCOc1cc(-c2cc(C)c3c(ccc4ccccc43)n2)ccc1O	-1.76
Cc1ccccc1NCC(=O)NN	-2.54
Cc1ccc(CCNC(=O)C2(NS(=O)(=O)c3cccc4cccnc34)CCCCC2)cc1	2.11
